# Tested on: HEK293T/17 cells
# condition-parameters: HEK293T/17 cells

# compound, Cytostatic effect (in words)
measured = [
    ("C/C(O)=C(\\C#N)C(=O)Nc1ccc(S(F)(F)(F)(F)F)cc1", "cytostatic"),
    ("C/C(O)=C(\\C#N)C(=O)Nc1ccc(C(F)(F)F)cc1 [Teriflunomide, reference compound]", "cytostatic"),
    ("Cc1oncc1C(=O)Nc1ccc(S(F)(F)(F)(F)F)cc1", "cytostatic"),
]

---

# target-or-test-system: SARS‐CoV‐2 M^pro (Severe acute respiratory syndrome coronavirus 2, UniProt P0DTD1)
# Construct: M^pro releases the functional polypeptides from the polyproteins by extensive proteolytic processing
# method-description: M^Pro inhibition (fluorescence‐based turnover assay / dose response)
# condition-parameters: enzyme inhibition; 17: fluorescence‐based turnover assay
pIC50: −log10 of the molar value.

# molecule, target-or-test-system, pIC50
data = [
    ("N#C/C(C(=O)Nc1ccc(F)cc1)=C(/O)c1ccc(Cl)cc1 [compound 17]", "SARS‐CoV‐2 M^pro (Severe acute respiratory syndrome coronavirus 2, UniProt P0DTD1)", 6.64),
]
